Test system: vancomycin-resistant (Vanco^r) E. faecium and E. faecalis
procedure_text: Susceptibility of vancomycin-resistant enterococci, agar-dilution MIC
Type: cell-based
Description: End points were read after 24-hour incubation. The ratio was calculated by dividing the mean MIC of the compound against the vancomycin-resistant strains by the mean MIC of the compound against the vancomycin-susceptible strains.
outcome_measure: Ratio (mean MIC vancomycin-resistant strains / mean MIC vancomycin-susceptible strains)

[[record]]
compound = "CNC(CC(C)C)C(=O)NC1C(=O)NC(CC(N)=O)C(=O)NC2C(=O)NC3C(=O)NC(C(=O)NC(C(=O)O)c4cc(O)cc(O)c4-c4cc3ccc4O)C(OC3CC(C)(N)C(O)C(C)O3)c3ccc(c(Cl)c3)Oc3cc2cc(c3OC2OC(CO)C(O)C(O)C2OC2CC(C)(NCC(c3ccccc3)c3ccccc3)C(O)C(C)O2)Oc2ccc(cc2Cl)C1O (stereo not shown)"
measured_result = 5.5


====

This listing pairs compounds with measured MIC.
System: Klebsiella pneumoniae KAE
procedure_text: MIC, standard agar-dilution assay
Type: cell-based
outcome_measure: MIC

[[record]]
chemical_smiles = "CN[C@H](CC(C)C)C(=O)N[C@H]1C(=O)N[C@@H](CC(N)=O)C(=O)N[C@H]2C(=O)N[C@H]3C(=O)N[C@H](C(=O)N[C@H](C(=O)O)c4cc(O)cc(O)c4-c4cc3ccc4O)[C@H](O[C@H]3C[C@](C)(N)[C@@H](O)[C@H](C)O3)c3ccc(cc3)Oc3cc2cc(c3O[C@@H]2O[C@H](CO)[C@@H](O)[C@H](O)[C@H]2O[C@H]2C[C@](C)(NCc3ccc(Br)cc3)[C@@H](O)[C@H](C)O2)Oc2ccc(cc2Cl)[C@H]1O"
outcome_measure = "MIC"
measured_result = "> 128 µg/mL"

[[record]]
chemical_smiles = "CC(C)C[C@H](C(=O)N[C@H]1C(=O)N[C@@H](CC(N)=O)C(=O)N[C@H]2C(=O)N[C@H]3C(=O)N[C@H](C(=O)N[C@H](C(=O)O)c4cc(O)cc(O)c4-c4cc3ccc4O)[C@H](O[C@H]3C[C@](C)(NCc4ccccc4)[C@@H](O)[C@H](C)O3)c3ccc(cc3)Oc3cc2cc(c3O[C@@H]2O[C@H](CO)[C@@H](O)[C@H](O)[C@H]2O[C@H]2C[C@](C)(NCc3ccccc3)[C@@H](O)[C@H](C)O2)Oc2ccc(cc2Cl)[C@H]1O)N(C)Cc1ccccc1"
outcome_measure = "MIC"
measured_result = "> 128 µg/mL"


====

Test system: Staphylococcus aureus S13E
Assay type: cell-based
outcome_measure: MIC

[[record]]
chemical_smiles = "CCN(CC)c1ccc(CN[C@@]2(C)C[C@H](O[C@H]3[C@H](Oc4c5cc6cc4Oc4ccc(cc4Cl)[C@@H](O)[C@@H](NC(=O)[C@@H](CC(C)C)NC)C(=O)N[C@@H](CC(N)=O)C(=O)N[C@H]6C(=O)N[C@H]4C(=O)N[C@H](C(=O)N[C@H](C(=O)O)c6cc(O)cc(O)c6-c6cc4ccc6O)[C@H](O[C@H]4C[C@](C)(N)[C@@H](O)[C@H](C)O4)c4ccc(cc4)O5)O[C@H](CO)[C@@H](O)[C@@H]3O)O[C@@H](C)[C@@H]2O)cc1"
measurement_target = "Staphylococcus aureus S13E"
measured_result = ".5 µg/mL"


====

This listing pairs molecules with measured MIC.
Test system: Haemophilus influenzae 76
procedure_text: MIC, standard agar-dilution assay
Format: cell-based
outcome_measure: MIC

[[record]]
molecule = "CNC(CC(C)C)C(=O)NC1C(=O)NC(CC(N)=O)C(=O)NC2C(=O)NC3C(=O)NC(C(=O)NC(C(=O)O)c4cc(O)cc(O)c4-c4cc3ccc4O)C(OC3CC(C)(N)C(O)C(C)O3)c3ccc(c(Cl)c3)Oc3cc2cc(c3OC2OC(CO)C(O)C(O)C2OC2CC(C)(NCc3ccc(F)cc3)C(O)C(C)O2)Oc2ccc(cc2Cl)C1O (stereo not drawn) [Compound 67]"
measured_result = "> 128 µg/mL"

[[record]]
molecule = "CCCCCN[C@@]1(C)C[C@H](O[C@H]2[C@H](Oc3c4cc5cc3Oc3ccc(cc3Cl)[C@@H](O[C@H]3C[C@](C)(N)[C@@H](O)[C@H](C)O3)[C@@H]3NC(=O)[C@H](NC(=O)[C@@H]5NC(=O)[C@H](CC(N)=O)NC(=O)[C@H](NC(=O)[C@@H](CC(C)C)NC)[C@H](O)c5ccc(c(Cl)c5)O4)c4ccc(O)c(c4)-c4c(O)cc(O)cc4[C@@H](C(=O)O)NC3=O)O[C@H](CO)[C@@H](O)[C@@H]2O)O[C@@H](C)[C@@H]1O [Compound 34]"
measured_result = "> 128 µg/mL"

[[record]]
molecule = "CNC(CC(C)C)C(=O)NC1C(=O)NC(CC(N)=O)C(=O)NC2C(=O)NC3C(=O)NC(C(=O)NC(C(=O)O)c4cc(O)cc(O)c4-c4cc3ccc4O)C(OC3CC(C)(N)C(O)C(C)O3)c3ccc(c(Cl)c3)Oc3cc2cc(c3OC2OC(CO)C(O)C(O)C2OC2CC(C)(NCc3ccccc3Cl)C(O)C(C)O2)Oc2ccc(cc2Cl)C1O (stereo not drawn) [Compound 62]"
measured_result = "> 128 µg/mL"


====

This listing pairs compounds with measured MIC.
Test system: Enterococcus faecalis 2041
procedure_text: MIC, standard agar-dilution assay
Type: cell-based
outcome_measure: MIC (µg/mL)

[[record]]
compound = "CC(C)C[C@H](C(=O)N[C@H]1C(=O)N[C@@H](CC(N)=O)C(=O)N[C@H]2C(=O)N[C@H]3C(=O)N[C@H](C(=O)N[C@H](C(=O)O)c4cc(O)cc(O)c4-c4cc3ccc4O)[C@H](O[C@H]3C[C@](C)(NCc4ccccc4)[C@@H](O)[C@H](C)O3)c3ccc(cc3)Oc3cc2cc(c3O[C@@H]2O[C@H](CO)[C@@H](O)[C@H](O)[C@H]2O[C@H]2C[C@](C)(NCc3ccccc3)[C@@H](O)[C@H](C)O2)Oc2ccc(cc2Cl)[C@H]1O)N(C)Cc1ccccc1 [Compound 12]"
outcome_measure = "MIC"
measured_result = 8

[[record]]
compound = "CCCCCN(C)[C@H](CC(C)C)C(=O)N[C@H]1C(=O)N[C@@H](CC(N)=O)C(=O)N[C@H]2C(=O)N[C@H]3C(=O)N[C@H](C(=O)N[C@H](C(=O)O)c4cc(O)cc(O)c4-c4cc3ccc4O)[C@H](O[C@H]3C[C@](C)(N)[C@@H](O)[C@H](C)O3)c3ccc(cc3)Oc3cc2cc(c3O[C@@H]2O[C@H](CO)[C@@H](O)[C@H](O)[C@H]2O[C@H]2C[C@](C)(N)[C@@H](O)[C@H](C)O2)Oc2ccc(cc2Cl)[C@H]1O [Compound 6]"
outcome_measure = "MIC"
measured_result = 1

[[record]]
compound = "CCCCCN[C@@]1(C)C[C@H](O[C@H]2[C@H](Oc3c4cc5cc3Oc3ccc(cc3Cl)[C@@H](O)[C@@H](NC(=O)[C@@H](CC(C)C)N(C)CCCCC)C(=O)N[C@@H](CC(N)=O)C(=O)N[C@H]5C(=O)N[C@H]3C(=O)N[C@H](C(=O)N[C@H](C(=O)O)c5cc(O)cc(O)c5-c5cc3ccc5O)[C@H](O[C@H]3C[C@](C)(N)[C@@H](O)[C@H](C)O3)c3ccc(cc3)O4)O[C@H](CO)[C@@H](O)[C@@H]2O)O[C@@H](C)[C@@H]1O [Compound 7]"
outcome_measure = "MIC"
measured_result = 2


====

This listing pairs molecules with measured MIC.
System: Staphylococcus aureus V41
procedure_text: MIC, standard agar-dilution assay
Assay type: cell-based
Protocol: The formula I compounds have in vitro and in vivo activity against Gram-positive pathogenic bacteria. The MIC's were determined using a standard agar-dilution assays.
outcome_measure: MIC (µg/mL)

[[record]]
molecule = "CCCCCCCCN[C@@]1(C)C[C@H](O[C@H]2[C@H](Oc3c4cc5cc3Oc3ccc(cc3Cl)[C@@H](O)[C@@H](NC(=O)[C@@H](CC(C)C)NC)C(=O)N[C@@H](CC(N)=O)C(=O)N[C@H]5C(=O)N[C@H]3C(=O)N[C@H](C(=O)N[C@H](C(=O)O)c5cc(O)cc(O)c5-c5cc3ccc5O)[C@H](O[C@H]3C[C@](C)(N)[C@@H](O)[C@H](C)O3)c3ccc(cc3)O4)O[C@H](CO)[C@@H](O)[C@@H]2O)O[C@@H](C)[C@@H]1O"
outcome_measure = "MIC"
unit_of_measurement = "µg/mL"
measured_result = 1

[[record]]
molecule = "CCCCCNC1(C)CC(OC2c3ccc(cc3)Oc3cc4cc(c3O)Oc3ccc(cc3Cl)C(O)C(NC(=O)C(CC(C)C)NC)C(=O)NC(CC(N)=O)C(=O)NC4C(=O)NC3C(=O)NC2C(=O)NC(C(=O)O)c2cc(O)cc(O)c2-c2cc3ccc2O)OC(C)C1O (stereo not drawn)"
outcome_measure = "MIC"
unit_of_measurement = "µg/mL"
measured_result = 4


====

This listing pairs molecules with measured MIC.
System: Staphylococcus aureus S13E
Assay type: cell-based
outcome_measure: MIC (µg/mL)

[[record]]
molecule = "CCCCCCCCOc1ccc(CNC2(C)CC(OC3C(Oc4c5cc6cc4Oc4ccc(cc4Cl)C(OC4CC(C)(N)C(O)C(C)O4)C4NC(=O)C(NC(=O)C6NC(=O)C(CC(N)=O)NC(=O)C(NC(=O)C(CC(C)C)NC)C(O)c6ccc(c(Cl)c6)O5)c5ccc(O)c(c5)-c5c(O)cc(O)cc5C(C(=O)O)NC4=O)OC(CO)C(O)C3O)OC(C)C2O)cc1 (centres unmarked)"
unit_of_measurement = "µg/mL"
measured_result = 8

[[record]]
molecule = "CCCCCCCCc1ccc(CNC2(C)CC(OC3C(Oc4c5cc6cc4Oc4ccc(cc4Cl)C(OC4CC(C)(N)C(O)C(C)O4)C4NC(=O)C(NC(=O)C6NC(=O)C(CC(N)=O)NC(=O)C(NC(=O)C(CC(C)C)NC)C(O)c6ccc(c(Cl)c6)O5)c5ccc(O)c(c5)-c5c(O)cc(O)cc5C(C(=O)O)NC4=O)OC(CO)C(O)C3O)OC(C)C2O)cc1 (centres unmarked)"
unit_of_measurement = "µg/mL"
measured_result = 64

[[record]]
molecule = "CNC(CC(C)C)C(=O)NC1C(=O)NC(CC(N)=O)C(=O)NC2C(=O)NC3C(=O)NC(C(=O)NC(C(=O)O)c4cc(O)cc(O)c4-c4cc3ccc4O)C(OC3CC(C)(N)C(O)C(C)O3)c3ccc(c(Cl)c3)Oc3cc2cc(c3OC2OC(CO)C(O)C(O)C2OC2CC(C)(NCc3ccc(F)cc3)C(O)C(C)O2)Oc2ccc(cc2Cl)C1O (centres unmarked)"
unit_of_measurement = "µg/mL"
measured_result = 1

[[record]]
molecule = "CC(C)C[C@H](C(=O)N[C@H]1C(=O)N[C@@H](CC(N)=O)C(=O)N[C@H]2C(=O)N[C@H]3C(=O)N[C@H](C(=O)N[C@H](C(=O)O)c4cc(O)cc(O)c4-c4cc3ccc4O)[C@H](O[C@H]3C[C@](C)(NCc4ccccc4)[C@@H](O)[C@H](C)O3)c3ccc(cc3)Oc3cc2cc(c3O[C@@H]2O[C@H](CO)[C@@H](O)[C@H](O)[C@H]2O[C@H]2C[C@](C)(NCc3ccccc3)[C@@H](O)[C@H](C)O2)Oc2ccc(cc2Cl)[C@H]1O)N(C)Cc1ccccc1"
unit_of_measurement = "µg/mL"
measured_result = 4

[[record]]
molecule = "CN[C@H](CC(C)C)C(=O)N[C@H]1C(=O)N[C@@H](CC(N)=O)C(=O)N[C@H]2C(=O)N[C@H]3C(=O)N[C@H](C(=O)N[C@H](C(=O)O)c4cc(O)cc(O)c4-c4cc3ccc4O)[C@H](O[C@H]3C[C@](C)(N)[C@@H](O)[C@H](C)O3)c3ccc(c(Cl)c3)Oc3cc2cc(c3O[C@@H]2O[C@H](CO)[C@@H](O)[C@H](O)[C@H]2O[C@H]2C[C@](C)(NCCc3ccccc3)[C@@H](O)[C@H](C)O2)Oc2ccc(cc2Cl)[C@H]1O"
unit_of_measurement = "µg/mL"
measured_result = 1

[[record]]
molecule = "CNC(CC(C)C)C(=O)NC1C(=O)NC(CC(N)=O)C(=O)NC2C(=O)NC3C(=O)NC(C(=O)NC(C(=O)O)c4cc(O)cc(O)c4-c4cc3ccc4O)C(OC3CC(C)(NCc4ccc(F)cc4)C(O)C(C)O3)c3ccc(c(Cl)c3)Oc3cc2cc(c3OC2OC(CO)C(O)C(O)C2OC2CC(C)(N)C(O)C(C)O2)Oc2ccc(cc2Cl)C1O (centres unmarked)"
unit_of_measurement = "µg/mL"
measured_result = 1


Every entry's value here was drawn from patent US5591714A.
